- measurementTarget: T1, human PD-1 dimer (human PD-1-mFc or human PD-1-hFc) (human, UniProt Q15116 25-170)
- T1 construct: also called hPD-1-mFc; hPD1-hFc
- T1 sequence (Q15116 25-170 C93S): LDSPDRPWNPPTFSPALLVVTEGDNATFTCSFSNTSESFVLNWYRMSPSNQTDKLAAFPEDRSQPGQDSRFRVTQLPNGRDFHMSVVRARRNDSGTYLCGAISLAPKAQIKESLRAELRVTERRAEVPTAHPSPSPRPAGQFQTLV
- methodDescription: SPR, mAb captured, 25C;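 note: surface plasmon resonance on Biacore, PD-1 flowed over captured anti-PD-1 antibodies, rate constants from a 1:1 binding model fit, KD taken as kd/ka and t½ as ln2/(60·kd)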

binder	kon
H2aM7780N (antibody, mouse IgG2a, V domains shown, Human variable regions, mouse IgG2a Fc (H2aM prefix); also called H2M7780N) VH: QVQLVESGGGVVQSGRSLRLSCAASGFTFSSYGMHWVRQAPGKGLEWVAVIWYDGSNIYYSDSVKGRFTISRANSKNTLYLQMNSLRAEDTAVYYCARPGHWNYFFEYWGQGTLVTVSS VL: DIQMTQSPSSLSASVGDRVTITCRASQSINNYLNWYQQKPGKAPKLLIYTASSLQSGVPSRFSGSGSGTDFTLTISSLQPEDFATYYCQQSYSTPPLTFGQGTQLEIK	42100 M⁻¹ s⁻¹
H1M7799N (antibody, mouse IgG1, V domains shown, Human variable regions, mouse IgG1 Fc) VH: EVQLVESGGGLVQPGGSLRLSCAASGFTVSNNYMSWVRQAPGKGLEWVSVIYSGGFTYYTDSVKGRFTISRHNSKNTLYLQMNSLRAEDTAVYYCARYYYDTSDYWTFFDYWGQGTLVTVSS VL: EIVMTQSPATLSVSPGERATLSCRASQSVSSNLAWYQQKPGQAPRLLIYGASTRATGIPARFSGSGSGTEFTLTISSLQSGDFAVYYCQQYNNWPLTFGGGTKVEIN	238000 M⁻¹ s⁻¹
H2aM7798N (antibody, mouse IgG2a, V domains shown, Human variable regions, mouse IgG2a Fc; also called H2M7798N) VH: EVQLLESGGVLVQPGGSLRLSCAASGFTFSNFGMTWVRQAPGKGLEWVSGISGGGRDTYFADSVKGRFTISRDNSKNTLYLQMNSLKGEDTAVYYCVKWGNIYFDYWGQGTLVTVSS VL: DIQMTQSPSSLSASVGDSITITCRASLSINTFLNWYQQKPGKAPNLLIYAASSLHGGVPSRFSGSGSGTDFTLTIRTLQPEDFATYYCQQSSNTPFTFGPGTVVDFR	350000 M⁻¹ s⁻¹
